These entries and their values trace back to paper PMC10304470.

Target: TLR4/MD-2 complex (Homo sapiens, UniProt O00206+Q9Y6Y9)
Construct: purchased R&D Systems
Sequence (O00206 24-631 limits assumed): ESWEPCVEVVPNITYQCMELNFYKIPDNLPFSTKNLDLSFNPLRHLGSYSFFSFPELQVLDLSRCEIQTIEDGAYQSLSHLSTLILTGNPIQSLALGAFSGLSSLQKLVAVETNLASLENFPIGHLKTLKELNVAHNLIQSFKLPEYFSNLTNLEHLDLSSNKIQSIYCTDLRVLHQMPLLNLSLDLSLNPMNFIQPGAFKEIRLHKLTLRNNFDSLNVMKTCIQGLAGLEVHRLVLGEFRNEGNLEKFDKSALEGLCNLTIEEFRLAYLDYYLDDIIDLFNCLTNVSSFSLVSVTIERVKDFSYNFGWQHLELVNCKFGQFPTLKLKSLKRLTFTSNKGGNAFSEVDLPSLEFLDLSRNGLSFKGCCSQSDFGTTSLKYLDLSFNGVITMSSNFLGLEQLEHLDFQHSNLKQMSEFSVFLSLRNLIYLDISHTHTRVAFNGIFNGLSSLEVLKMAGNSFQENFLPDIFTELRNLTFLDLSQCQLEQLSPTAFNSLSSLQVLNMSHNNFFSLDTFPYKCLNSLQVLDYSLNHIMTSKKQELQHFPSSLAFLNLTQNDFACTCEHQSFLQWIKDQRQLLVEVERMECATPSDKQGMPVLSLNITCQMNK
Sequence (Q9Y6Y9 17-160 limits assumed): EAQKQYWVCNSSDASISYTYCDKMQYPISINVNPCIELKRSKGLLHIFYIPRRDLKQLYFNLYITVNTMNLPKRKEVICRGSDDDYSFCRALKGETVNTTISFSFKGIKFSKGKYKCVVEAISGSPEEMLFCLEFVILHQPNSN
Experiment: Surface plasmon resonance (SPR)
Format: binding
Details: Biacore T200, CM5 chip, PBS with 0.05% Tween 20, 25 °C, read-out: equilibrium constant (KD) for TLR4/MD2
Ends that are not written are not given here.
propertyName: pKd
# reply with the number alone; pKd is -log10 of concentration in mol/L

Given RWKFFKKIEKVGQNIRDGIIKAGPAVAVVGQAASITGK-NH2 [T. ni cecropin] , report its pKd on TLR4/MD-2 complex (Homo sapiens, UniProt O00206+Q9Y6Y9). 6.25
